assay: yeast display, Sf9 membrane polyspecificity reagent, FACS + sequencing; frameworks hold sequencing errors
Value kind: polyreactivity (PSR sort gate)

{"Residue codes": "QVQLVESGGGLVQAGGSLRLSCAASGSIYYNAMGWYRQAPGKERELVASISTGDSTDYADSVKGRFTISRDNAKNTVYLQMNSLKPEDTAVYYCAADTRLGYWDDYWGQGTQVTVSS", "Value observed": "low polyreactivity"}
{"Residue codes": "QVQLVESGGGLVQAGGSLRLSCAASGRIFVYNAMGLYRQAPGKERELVAAISSTGSTNYADSVKGRFTISRDNAKNTVYLQMNSLKPEDTAVYYFAAVYYFYGYSGYYGQYDYWGQGTQVTVSS", "Value observed": "low polyreactivity"}
{"Residue codes": "QDQIVETGGGLVQAGCSLRLSCAASGSIYYNSMGWYRTAHAKETELVASISTGDSTDYADSVKGRFTISRDYAKYTVYLQMNSLKPEDTAVYYCKAVASQHDEFDYWGQGTQVTVSS", "Value observed": "low polyreactivity"}
{"Residue codes": "QVQLVESGGGLVQAGGSLRLSCASSGSTFTTNALGWYRQAPGKERELVAAISRRGGSTYYADSVKGRFRISRDNAKNTVYLQMNSLKPEDTAVYYCNAVRAEYEFDYWGQGTQVTVSS", "Value observed": "high polyreactivity"}
{"Residue codes": "QVQLVESGGGLVQAGGSLRLTCAASGSIFGFNAMGWYRQAPGKERELGAAISSGSTYYADSVKGRFTISRDNAKNTVYLQINSLKPEDTAVYYCNARSNRGRFEYWGQGTQVTESS", "Value observed": "low polyreactivity"}
{"Residue codes": "QVQLVESGGGLVQAGGSLRLSCAASGFIITSYAMGWYRQAPGKERELVAAIRRTGGTYYADSVKGRFTISRDNAKNTVYLQMNSLKPEDTAVYYCNTRLSYRNRGFDYWGQGTQVTVSS", "Value observed": "high polyreactivity"}

Input line: So what does the record say about polyreactivity (PSR sort gate) for QVQLVESGGGLVQAGGSLRLSCAASGITFFQYAMGWSRQAPGKERELVAAISRSGSRTYYADSVKGRFTISRDNAKNTVYLQLNSLKQEDTAVYYCAAARVNDHYGYYRQMNYWGQCTQVTVSS ?
Output line: high polyreactivity

Input line: Which polyreactivity (PSR sort gate) is listed for QVQLVESGGGLVQAGGSLRLSCAASGITFVYYAMGWYRQAPGKERELVASISSGGSTYYADSVKGRFTISRDNAKNTVYLQMNSLKPEDTAVYYCAAPTGWYPAYCEYEYWGQGTQVTVSS ?
Output line: low polyreactivity

Input line: Consider the sequence shown here: QVQLVDSGGGLVQAGGSLRLSCAASGSITYYAMGWYRQAPGKERELVAAISSSGGSTYYADSVKGRFTISRDNAKNTVYLQMNSLKPEDTAVYYCAAYGRYGAHTGYGSWGQGTQVTVSS What is its recorded polyreactivity (PSR sort gate)?
Output line: high polyreactivity

Input line: I am curious: what polyreactivity (PSR sort gate) value has been reported for QVQLVESGGGLVQAGGSLRLSCAASGFIFGTYAMGWYRQAPGKEREFVAAINWGGGRTYYADSVKGRFTISRDNAKNTVYLQMNSLKPEDTAVYYCNKRLIYYRGTYYSRRFDYWGQGTQVTVSS ?
Output line: high polyreactivity

Input line: I have this sequence here, QVQIVESGGGLVQAGGSLRLSCASSGSTFVPNDMGSYRQAPWKERELVAAISRSGDDTYYADSVKGRFTISRDNAKNTVYFQMNSLIPEDTAVYYCNAAGRPFFLRPLRWELDYWGQGTQVTVSS , and I need its recorded polyreactivity (PSR sort gate).
Output line: low polyreactivity

Input line: I have this sequence here, QVQLVESGGGLVQAGGSLRLSCAASGRIFDRNAMGWSRQAPGKERELVAAITRSGGRTYYADSVKGRFTISRDNAKYTVYLQMNSLKPEDTAVYYCNRGYPRSVVHYNSWGQGTQVTVSS , and I need its recorded polyreactivity (PSR sort gate).
Output line: high polyreactivity
